Hello, the source for this data is patent US20210095032A1, in case you need it.

molecular target: T1, biotin-labeled human PD-1 Fc protein (human, biotin-labeled (site not stated)); assay: competition ELISA, antibody + biotin human PD-1-Fc on coated human PD-L1-Fc (competitor PD-L1-Fc)
T1 construct: also called PD-1-Fc-biotin
Assay readout: pIC50
Note: pIC50 values are expressed as the negative base-10 logarithm of concentration in M.

## Task Recorded pIC50 for mouse anti-PD-1 monoclonal antibody D2H3 (antibody, V domains shown, Mouse antibody purified from a hybridoma; also called Mouse D2H3; mouse D2H3) VH: EVQLQQSGTVLARPGASVKMSCKSSGYTFTNYWMHWVKQRPGQGLEWIGAIFPRNSETNYNQKFKAKAKLTAVTSASTAYMEVSSLTSEDSAVYFCTRNRYGLDYWGQGTSVTVSS VL: DIVLTQSPGFLAVSLGQRATISCRASESVSLHGTRLMHWYHQKPGQPPKLLISLGSNLESGVPARFSGSGSETDFTLNIHPVEEEDAATYFCQQSIEDPWTFGGGTKLEIK , please?
## Result 9.05
